// data source = BigSolDB 2.1

details: in tetraglyme, 308.15 K
attribute_measured: solubility (mole fraction)

smiles_str=CC1=NN(c2ccccc2)C(=O)C1 attribute_measured="solubility (mole fraction)" number=0.131

---

conditions: in triglyme, 298.15 K
attribute_measured: solubility (mole fraction)

smiles_str=CC1=NN(c2ccccc2)C(=O)C1 number=0.0153

---

conditions: in DMSO, 303.15 K
attribute_measured: solubility (mole fraction)

smiles_str=CC1=NN(c2ccccc2)C(=O)C1 number=0.122

---

settings: in 2,4-dimethylphenol, 308.15 K
attribute_measured: solubility (mole fraction)

smiles_str=CC1=NN(c2ccccc2)C(=O)C1 attribute_measured="solubility (mole fraction)" number=0.0408

---

details: in DMSO, 308.15 K
attribute_measured: solubility (mole fraction)

smiles_str=CC1=NN(c2ccccc2)C(=O)C1 attribute_measured="solubility (mole fraction)" number=0.201

---

details: in diglyme, 303.15 K
attribute_measured: solubility (mole fraction)

smiles_str=CC1=NN(c2ccccc2)C(=O)C1 number=0.0269

---

settings: in tetraglyme, 303.15 K
attribute_measured: solubility (mole fraction)

smiles_str=CC1=NN(c2ccccc2)C(=O)C1 result=0.0863

---

details: in 2,4-dimethylphenol, 303.15 K
attribute_measured: solubility (mole fraction)

smiles_str=CC1=NN(c2ccccc2)C(=O)C1 number=0.0282

---

conditions: in NMP, 313.15 K
attribute_measured: solubility (mole fraction)

smiles_str=CC1=NN(c2ccccc2)C(=O)C1 attribute_measured="solubility (mole fraction)" number=0.0861

---

details: in morpholine-4-carbaldehyde, 303.15 K
attribute_measured: solubility (mole fraction)

smiles_str=CC1=NN(c2ccccc2)C(=O)C1 attribute_measured="solubility (mole fraction)" number=0.0146

---

conditions: in diglyme, 298.15 K
attribute_measured: solubility (mole fraction)

smiles_str=CC1=NN(c2ccccc2)C(=O)C1 result=0.0205

---

conditions: in NMP, 303.15 K
attribute_measured: solubility (mole fraction)

smiles_str=CC1=NN(c2ccccc2)C(=O)C1 attribute_measured="solubility (mole fraction)" number=0.0496

---

details: in DMSO, 313.15 K
attribute_measured: solubility (mole fraction)

smiles_str=CC1=NN(c2ccccc2)C(=O)C1 number=0.298

---

conditions: in triglyme, 303.15 K
attribute_measured: solubility (mole fraction)

smiles_str=CC1=NN(c2ccccc2)C(=O)C1 attribute_measured="solubility (mole fraction)" number=0.022

---

conditions: in triglyme, 308.15 K
attribute_measured: solubility (mole fraction)

smiles_str=CC1=NN(c2ccccc2)C(=O)C1 number=0.0311

---

conditions: in tetraglyme, 298.15 K
attribute_measured: solubility (mole fraction)

smiles_str=CC1=NN(c2ccccc2)C(=O)C1 number=0.0463

---

conditions: in triglyme, 313.15 K
attribute_measured: solubility (mole fraction)

smiles_str=CC1=NN(c2ccccc2)C(=O)C1 number=0.0457

---

settings: in diglyme, 308.15 K
attribute_measured: solubility (mole fraction)

smiles_str=CC1=NN(c2ccccc2)C(=O)C1 number=0.0333

---

conditions: in 2,4-dimethylphenol, 298.15 K
attribute_measured: solubility (mole fraction)

smiles_str=CC1=NN(c2ccccc2)C(=O)C1 number=0.0188

---

conditions: in morpholine-4-carbaldehyde, 298.15 K
attribute_measured: solubility (mole fraction)

smiles_str=CC1=NN(c2ccccc2)C(=O)C1 number=0.0111

---

settings: in morpholine-4-carbaldehyde, 308.15 K
attribute_measured: solubility (mole fraction)

smiles_str=CC1=NN(c2ccccc2)C(=O)C1 number=0.0176
